Reference source: patent US8829029B2

- tested_on: UniProt P28223
- assay_procedure: Radioligand binding ([3H]-ketanserin) to cloned human 5-HT2A receptor expressed in HEK-293 EBNA cells
- condition_info: membranes of transfected HEK-293 EBNA cells, 1.1 nM [3H]-ketanserin, 1 h at RT
assay_metric: pKi
API: returns pKi as number; meaning -log10 of concentration in mol/L.

## Input Please look up its pKi: CO[C@@H]1CC[C@@H](CC(=O)N[C@H]2CC[C@H](CCN3CCC(c4noc5cc(F)c(F)cc45)CC3)CC2)C1 [Example 63]
## Output 7.88

## Input For O=C(C[C@@H]1CCCCO1)N[C@H]1CC[C@H](CCN2CCC(c3noc4cc(Cl)ccc34)CC2)CC1 [Example 34A] then?
## Output 7.86

## Input // repeat for O=C(CCO)N[C@H]1CC[C@H](CCN2CCC(c3noc4cc(F)c(F)cc34)CC2)CC1 [Example 68] and report
## Output 7.61

## Input Can you handle O=C(N[C@H]1CC[C@H](CCN2CCC(c3noc4cc(F)ccc34)CC2)CC1)C1(C(F)(F)F)CCC1 [Example 19] next?
## Output 8.65

## Input COCCC(=O)N[C@H]1CC[C@H](CCN2CCC(c3noc4cc(F)c(F)cc34)CC2)CC1 [Example 65] ?
## Output 7.89

## Input Another compound to check: O=C(CC1CC1)N[C@H]1CC[C@H](CCN2CCC(c3noc4cc(Cl)ccc34)CC2)CC1 [Example 54]
## Output 7.88

## Input Entry to check: O=C(CC1CCCCO1)N[C@H]1CC[C@H](CCN2CCC(c3noc4cc(Cl)ccc34)CC2)CC1 (some centres unmarked) [Example 34]
## Output 8.23

## Input Note, next up: O=C(N[C@H]1CC[C@H](CCN2CCC(c3noc4cc(F)c(F)cc34)CC2)CC1)C1CCOCC1 [Example 71]
## Output 8.10

----------
Kindly state Ki for each of the entries shown.
- tested_on: human D3 dopamine receptor (Homo sapiens (Human))
- Sequence (P35462 whole entry): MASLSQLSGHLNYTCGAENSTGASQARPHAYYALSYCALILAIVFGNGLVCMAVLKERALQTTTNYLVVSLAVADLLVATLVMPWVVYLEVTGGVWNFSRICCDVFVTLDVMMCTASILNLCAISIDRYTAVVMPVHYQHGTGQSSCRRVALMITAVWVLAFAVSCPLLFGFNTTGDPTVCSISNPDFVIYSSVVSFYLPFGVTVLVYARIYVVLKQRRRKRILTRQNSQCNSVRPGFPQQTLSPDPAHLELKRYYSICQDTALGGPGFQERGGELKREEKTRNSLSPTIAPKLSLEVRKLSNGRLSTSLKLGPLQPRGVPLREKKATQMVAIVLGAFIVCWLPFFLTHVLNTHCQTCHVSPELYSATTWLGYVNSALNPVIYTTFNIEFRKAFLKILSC
Give the number first and the unit second.

## Input Report Ki for O=C(CC1OCCCO1)N[C@H]1CC[C@H](CCN2CCC(c3noc4cc(F)c(F)cc34)CC2)CC1 please.
## Output 13.5 nM

## Input Repeat for the following compound: O=C(N[C@H]1CC[C@H](CCN2CCC(c3noc4cc(F)ccc34)CC2)CC1)c1ccc(N2CCS(=O)(=O)CC2)cc1
## Output 4.67 nM

## Input Moving on to the next compound: O=C(N[C@H]1CC[C@H](CCN2CCC(c3noc4cc(F)ccc34)CC2)CC1)c1ccc(Cl)cc1
## Output 3.5 nM

## Input // query: O=C(N[C@H]1CC[C@H](CCN2CCC(c3noc4cc(F)ccc34)CC2)CC1)C1(C(F)(F)F)CCC1
## Output 7.74 nM

## Input How about this compound: O=C(C[C@H]1CCCO1)N[C@H]1CC[C@H](CCN2CCC(c3noc4cc(Cl)ccc34)CC2)CC1
## Output 14.4 nM

----------
- tested_on: human 5-HT2A serotonin receptor (Homo sapiens (Human), UniProt P28223)
Checkbox rule: Ki lower than 8 nM = Criterion met; Ki not lower than 8 nM = Criterion not met.

## Input I wonder whether O=C(CC1CCC2(CC1)OCCO2)N[C@H]1CC[C@H](CCN2CCC(c3noc4cc(Cl)ccc34)CC2)CC1 has Ki below 8 nM. Can you tell?
## Output Criterion not met

## Input Next up: O=C(C[C@H]1CCCCO1)N[C@H]1CC[C@H](CCN2CCC(c3noc4cc(Cl)ccc34)CC2)CC1 [Example 34B]
## Output Criterion not met

## Input Try this compound too: O=C(N[C@H]1CC[C@H](CCN2CCC(c3noc4cc(F)ccc34)CC2)CC1)c1cnc(N2CCOCC2)nc1
## Output Criterion met

## Input Let us now turn to CCS(=O)(=O)N[C@H]1CC[C@H](CCN2CCC(c3noc4cc(F)ccc34)CC2)CC1
## Output Criterion met

## Input What about CC(=O)N[C@H]1CC[C@H](CCN2CCC(c3noc4cc(C)ccc34)CC2)CC1 ?
## Output Criterion not met

## Input Also, O=C(N[C@H]1CC[C@H](CCN2CCC(c3noc4cc(F)ccc34)CC2)CC1)c1ccc(N2CCCCC2)cc1 please.
## Output Criterion met

## Input Now give it for CC(C)(C)Oc1ccc(C(=O)N[C@H]2CC[C@H](CCN3CCC(c4noc5cc(F)ccc45)CC3)CC2)cc1 too.
## Output Criterion met

## Input Same for COc1ccc(S(=O)(=O)N[C@H]2CC[C@H](CCN3CCC(c4noc5cc(F)ccc45)CC3)CC2)cc1
## Output Criterion met

## Input Could you do the same for O=C(N[C@H]1CC[C@H](CCN2CCC(c3noc4cc(F)ccc34)CC2)CC1)c1ccc(N2CCOCC2)cc1 , please?
## Output Criterion not met

## Input Now this one: O=C(N[C@H]1CC[C@H](CCN2CCC(c3noc4cc(Cl)ccc34)CC2)CC1)C(O)C(F)(F)F (stereo partly drawn)
## Output Criterion not met

## Input Next entry: O=C(C[C@@H]1CC[C@@H](O)C1)N[C@H]1CC[C@H](CCN2CCC(c3noc4cc(F)c(F)cc34)CC2)CC1
## Output Criterion not met

## Input Now consider CO[C@H]1CC[C@H](CC(=O)N[C@H]2CC[C@H](CCN3CCC(c4noc5ccc(Cl)cc45)CC3)CC2)CC1 .
## Output Criterion not met

## Input Cool, now CS(=O)(=O)CC(=O)N[C@H]1CC[C@H](CCN2CCC(c3noc4cc(Cl)ccc34)CC2)CC1
## Output Criterion not met

## Input Queued: O=C(N[C@H]1CC[C@H](CCN2CCC(c3noc4ccc(F)cc34)CC2)CC1)c1ccc(N2CCCCC2)cc1
## Output Criterion met

## Input Lookup COCCC(=O)N[C@H]1CC[C@H](CCN2CCC(c3noc4cc(Cl)ccc34)CC2)CC1
## Output Criterion not met

----------
Parameter 'readout' = Ki; parameter 'system' = UniProtKB P28223.
Answer in nM, number only, no unit symbol.

## Input I would be grateful if you could share the reported Ki for O=C(N[C@H]1CC[C@H](CCN2CCC(c3noc4ccc(F)cc34)CC2)CC1)c1ccc2c(c1)OCO2 .
## Output 11.2

## Input Further, for COc1cc(C(=O)N[C@H]2CC[C@H](CCN3CCC(c4noc5cc(F)ccc45)CC3)CC2)ccn1 ?
## Output 1.62

## Input Input CC(=O)N[C@H]1CC[C@H](CCN2CCC(c3noc4cc(F)ccc34)CC2)CC1
## Output 2.22

## Input Now consider Cc1ccn(CC(=O)N[C@H]2CC[C@H](CCN3CCC(c4noc5cc(F)ccc45)CC3)CC2)n1 and answer again.
## Output 2.8

## Input And for CC1CN(c2ccc(C(=O)N[C@H]3CC[C@H](CCN4CCC(c5noc6cc(F)ccc56)CC4)CC3)cc2)CC(C)O1 (stereo partly shown) ?
## Output 21.2

## Input Follow-up item: O=C(N[C@H]1CC[C@H](CCN2CCC(c3noc4cc(F)ccc34)CC2)CC1)c1cnc(N2CCOCC2)cn1
## Output 3.81

## Input What do you have for COC(C)CC(=O)N[C@H]1CC[C@H](CCN2CCC(c3noc4cc(Cl)ccc34)CC2)CC1 (stereo partly shown) ?
## Output 13

----------
human D3 dopamine receptor (Homo sapiens (Human)) data, read-out pKi
Lab note — pKi values are minus log10 of concentrations in M.

## Input Using the record for COCCC(=O)N[C@H]1CC[C@H](CCN2CCC(c3noc4cc(Cl)ccc34)CC2)CC1 , report its pKi.
## Output 8.07

## Input Then this compound: N#CCCC(=O)N[C@H]1CC[C@H](CCN2CCC(c3noc4cc(Cl)ccc34)CC2)CC1
## Output 8.06

## Input And the next one, O=C(C[C@H]1CC[C@H](O)CC1)N[C@H]1CC[C@H](CCN2CCC(c3noc4cc(F)c(F)cc34)CC2)CC1 ?
## Output 7.68

## Input Then this compound: CC(=O)N[C@H]1CC[C@H](CCN2CCC(c3noc4cc(F)ccc34)CC2)CC1
## Output 8.30

## Input What would you report for COC[C@H]1CC[C@H](CC(=O)N[C@H]2CC[C@H](CCN3CCC(c4noc5cc(Cl)ccc45)CC3)CC2)CC1 ?
## Output 8.05

## Input What about O=C(CC1CCCO1)N[C@H]1CC[C@H](CCN2CCC(c3noc4cc(Cl)ccc34)CC2)CC1 (some centres unmarked) ?
## Output 8.05

## Input Cool, now COCC(=O)N[C@H]1CC[C@H](CCN2CCC(c3noc4cc(F)c(F)cc34)CC2)CC1
## Output 7.49

## Input Same thing, different compound: O=C(N[C@H]1CC[C@H](CCN2CCC(c3noc4cc(F)ccc34)CC2)CC1)c1ccc(N2CCOCC2)c(F)c1
## Output 7.34
